Target: KRas G12S (Homo sapiens, UniProt P01116, G12S)
Construct: Biotinylated KRas (corresponding to amino acids 1-169, produced at Accelegan Inc.); biotin (biotinylated); purchased Accelegan Inc
Sequence (P01116 1-169 isoform P01116-2 G12S): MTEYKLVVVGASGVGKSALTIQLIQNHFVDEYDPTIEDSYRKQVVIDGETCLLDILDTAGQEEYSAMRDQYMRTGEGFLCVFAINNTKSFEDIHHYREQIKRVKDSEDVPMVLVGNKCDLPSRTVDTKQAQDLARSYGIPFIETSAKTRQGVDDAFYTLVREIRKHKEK
Assay: KRas binding assay, TR-FRET displacement of Cy5 labelled tracer
Settings: 60-minute incubation at room temperature, 1% DMSO, pH 7.5
Protocol: This Example illustrates that exemplary compounds of the present invention bind to KRas and are capable of displacing a labeled tracer ligand occupying the KRas binding site. […] The ability of a compound to bind to KRas was measured using a TR-FRET displacement assay. […] After a 60-minute incubation at room temperature, the reaction was measured using a BMG LABTECH CLARIO star Plus via TR-FRET. […]
METRIC NAME: IC50 (nM)
Response body: numeric value in nM, unit text excluded.

// worked examples, IC50 included
MOLECULE SMILES	IC50 (nM)
Cc1ccccc1OC(=O)C1CCN(c2nc(OC[C@@]34CCCN3C[C@H](F)C4)nc3c(F)c(-c4ccc(F)c5sc(N)c(C#N)c45)c(Cl)cc23)CC1	127
O=C(Oc1c(F)cc(F)cc1F)C1CCN(c2nc(OCC34CCCN3CCC4)nc3c(F)c(-c4cccc5cccc(F)c45)ncc23)CC1	59600

Could you now consider this next molecule?
Input: Could you tell me which IC50 is on file for CCc1c(F)ccc2cc(O)cc(N3CCc4c(nc(OC[C@@]56CCCN5C[C@H](F)C6)nc4NCCC(=O)n4ccc(C)n4)C3)c12 ?
Output: 6

---

# reported IC50; entries follow
Molecular target: KRas G12C (Homo sapiens, UniProt P01116, G12C)
Construct: Biotinylated KRas (corresponding to amino acids 1-169, produced at Accelegan Inc.); biotin (biotinylated); purchased Accelegan Inc
Sequence (P01116 1-169 isoform P01116-2 G12C): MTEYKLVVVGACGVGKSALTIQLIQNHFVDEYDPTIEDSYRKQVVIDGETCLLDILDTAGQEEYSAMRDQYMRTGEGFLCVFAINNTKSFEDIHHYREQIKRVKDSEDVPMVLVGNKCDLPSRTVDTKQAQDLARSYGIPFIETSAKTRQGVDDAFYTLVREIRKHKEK
Experiment: KRas binding assay, TR-FRET displacement of Cy5 labelled tracer
Conditions: 60-minute incubation at room temperature, 1% DMSO, pH 7.5
Response body: numeric value in nM, unit text excluded.

COMPOUND	METRIC NAME	ENDPOINT RESULT
CCc1c(F)ccc2cc(O)cc(-c3ncc4c(N5CCN(C(=O)n6ccc(C)n6)C(C)C5)nc(OC[C@@]56CCCN5C[C@H](F)C6)nc4c3F)c12 (stereo partly drawn)	IC50	34

Could you now consider this next compound?
Input: Could you tell me which IC50 is on file for N#Cc1c(N)sc2c(F)ccc(-c3c(Cl)cc4c(N5CCC[C@H](C(=O)n6ccc(C7CC7)n6)CC5)nc(OC[C@@]56CCCN5C[C@H](F)C6)nc4c3F)c12 ?
Output: 4

---

Biological target: KRas WT (Homo sapiens)
Construct: Biotinylated KRas (corresponding to amino acids 1-169, produced at Accelegan Inc.); biotin (biotinylated); purchased Accelegan Inc
Sequence (P01116 1-169 isoform P01116-2): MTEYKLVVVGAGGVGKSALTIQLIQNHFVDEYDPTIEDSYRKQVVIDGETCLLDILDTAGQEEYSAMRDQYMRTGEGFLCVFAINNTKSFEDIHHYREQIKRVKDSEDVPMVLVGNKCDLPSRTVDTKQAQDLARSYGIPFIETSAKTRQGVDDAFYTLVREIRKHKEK
Assay: KRas binding assay, TR-FRET displacement of Cy5 labelled tracer
Details: 60-minute incubation at room temperature, 1% DMSO, pH 7.5
IC50 strictly less than 400 nM = condition met. Otherwise condition not met.

COMPOUND	GROUP
CCc1c(F)ccc2cc(O)cc(-c3ncc4c(N5CC6CCC(C5)C6C(=O)n5cccn5)nc(OC[C@@]56CCCN5C[C@H](F)C6)nc4c3F)c12 (some centres unmarked)	condition met
CCc1c(F)ccc2cc(O)cc(-c3ncc4c(N5CC6CC(C(=O)N(C)C(C)=O)C6C5)nc(OC[C@@]56CCCN5C[C@H](F)C6)nc4c3F)c12 (some centres unmarked)	condition met
CN(CCCC(=O)N(C)c1ccncn1)c1nc(OC[C@@]23CCCN2C[C@H](F)C3)nc2c(F)c(-c3ccc(F)c4sc(N)c(C#N)c34)c(Cl)cc12	condition met
CCc1c(F)ccc2cc(O)cc(-c3ncc4c(N(C)CCN(C)C(=O)n5ccnn5)nc(OC[C@@]56CCCN5C[C@H](F)C6)nc4c3F)c12 (single isomer, unassigned)	condition met
CCc1c(F)ccc2cc(O)cc(N3CCc4c(nc(OC[C@@]56CCCN5C[C@H](F)C6)nc4N4CCCC(C(=O)n5ccc(C)n5)CCC4)C3)c12	condition not met

Input: # TODO verify IC50 < 400 nM strictly for this compound: N#Cc1c(N)sc2c(F)ccc(-c3c(Cl)cc4c(N5CCC(C(=O)N6C7CCC6COC7)CC5)nc(OC[C@@]56CCCN5C[C@H](F)C6)nc4c3F)c12
Output: condition met

Input: # TODO verify IC50 < 400 nM strictly for this compound: CC(=O)N(C)C(=O)C1CCN(c2nc(OC[C@@]34CCCN3C[C@H](F)C4)nc3c(F)c(-c4ccc(F)c5sc(N)c(C#N)c45)c(Cl)cc23)CC1 [Example 253]
Output: condition met

Input: # TODO verify IC50 < 400 nM strictly for this compound: N#Cc1c(N)sc2c(F)ccc(-c3c(Cl)cc4c(N5CCC(C(=O)Oc6ccc(F)cc6)CC5)nc(OC[C@@]56CCCN5C[C@H](F)C6)nc4c3F)c12
Output: condition met

Input: # TODO verify IC50 < 400 nM strictly for this compound: O=C(OCC(F)(F)F)C1CCN(c2nc(OCC34CCCN3CCC4)nc3c(F)c(-c4cccc5cccc(F)c45)ncc23)CC1
Output: condition not met

Input: # TODO verify IC50 < 400 nM strictly for this compound: C#CCC1(C(=O)n2ccc(C)n2)CCN(c2nc(OC[C@@]34CCCN3C[C@H](F)C4)nc3c(F)c(-c4cc(O)cc5ccc(F)c(CC)c45)ncc23)C1 (some centres unmarked)
Output: condition not met

Input: # TODO verify IC50 < 400 nM strictly for this compound: CCc1c(F)ccc2cc(O)cc(-c3c(F)cc4c(N5CCCC(C(=O)n6ccc(C)n6)CC5)nc(OC[C@@]56CCCN5C[C@H](F)C6)nc4c3F)c12 (some centres unmarked)
Output: condition not met

Input: # TODO verify IC50 < 400 nM strictly for this compound: N#Cc1ccc(OC(=O)[C@@H]2[C@@H]3CC[C@H]2CN(c2nc(OCC45CCCN4CCC5)nc4c(F)c(-c5cccc6cccc(F)c56)ncc24)C3)cc1
Output: condition not met

Input: # TODO verify IC50 < 400 nM strictly for this compound: CCc1c(F)ccc2cc(O)cc(-c3ncc4c(N5CCC(C(=O)n6cc(C(C)C)cn6)CC5)nc(OC[C@@]56CCCN5C[C@H](F)C6)nc4c3F)c12
Output: condition not met

Input: # TODO verify IC50 < 400 nM strictly for this compound: CN(CCCC(=O)Oc1ccccc1F)c1nc(OC[C@@]23CCCN2C[C@H](F)C3)nc2c(F)c(-c3ccc(F)c4sc(N)c(C#N)c34)c(Cl)cc12
Output: condition met
